Measured Activity accompanies every entry in the list below.
Tested on: Mus musculus
Procedure summary: Phototoxic effect in UV light irradiated mouse assessed as ear thickness at 140 mg/kg, after 48 hrs relative to control
Assay type: ADME, organism-based
Parameters: dose 140 mg/kg
Particulars: in vivo
Result type: Activity

* CC1COc2c(N3CCN(C(c4ccccc4)c4ccc(Cl)cc4)CC3)c(F)c([N+](=O)[O-])c3c(=O)c(C(=O)O)cn1c23 (stereo unspecified) | 0.29 mm
* CCn1cc(C(=O)O)c(=O)c2cc(F)c(N3CCNC(C)C3)c(F)c21 (stereo unspecified) | 0.53 mm
* CC1COc2c(N3CCN(C)CC3)c(F)cc3c(=O)c(C(=O)O)cn1c23.Cl (stereo unspecified) | 0.3 mm
* CC1COc2c(N3CCC4(CC3)OCCO4)c(F)cc3c(=O)c(C(=O)O)cn1c23 (stereo unspecified) | 0.31 mm
* CC1COc2c(N3CCN(C(=O)c4ccco4)CC3)c(F)cc3c(=O)c(C(=O)O)cn1c23 (stereo unspecified) | 0.29 mm
* CC1COc2c(N3CCSCC3)c(F)c([N+](=O)[O-])c3c(=O)c(C(=O)O)cn1c23 (stereo unspecified) | 0.29 mm

---

Subject of test: DNA gyrase subunit A (Mycolicibacterium smegmatis)
Sequence (Q59556 whole entry): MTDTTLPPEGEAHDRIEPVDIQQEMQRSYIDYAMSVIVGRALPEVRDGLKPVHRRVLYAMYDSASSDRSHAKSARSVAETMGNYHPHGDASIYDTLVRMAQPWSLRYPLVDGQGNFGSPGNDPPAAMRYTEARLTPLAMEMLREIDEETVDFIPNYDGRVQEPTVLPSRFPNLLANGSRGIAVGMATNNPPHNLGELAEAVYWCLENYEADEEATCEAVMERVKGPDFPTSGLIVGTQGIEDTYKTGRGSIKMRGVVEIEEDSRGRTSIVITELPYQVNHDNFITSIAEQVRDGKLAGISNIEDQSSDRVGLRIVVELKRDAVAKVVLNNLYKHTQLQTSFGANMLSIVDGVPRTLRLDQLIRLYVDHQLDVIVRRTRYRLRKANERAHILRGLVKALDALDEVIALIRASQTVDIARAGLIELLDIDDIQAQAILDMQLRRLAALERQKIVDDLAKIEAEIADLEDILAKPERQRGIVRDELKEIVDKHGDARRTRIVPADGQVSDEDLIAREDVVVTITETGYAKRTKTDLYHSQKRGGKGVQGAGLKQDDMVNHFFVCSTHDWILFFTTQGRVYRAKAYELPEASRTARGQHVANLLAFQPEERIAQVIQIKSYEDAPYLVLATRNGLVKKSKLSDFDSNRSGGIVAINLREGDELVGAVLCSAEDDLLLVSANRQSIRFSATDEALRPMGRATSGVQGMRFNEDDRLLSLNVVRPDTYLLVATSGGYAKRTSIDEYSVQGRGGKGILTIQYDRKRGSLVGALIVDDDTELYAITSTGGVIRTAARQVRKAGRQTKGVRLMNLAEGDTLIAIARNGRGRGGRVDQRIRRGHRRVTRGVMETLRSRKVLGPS
Procedure summary: Inhibition of Mycobacterium smegmatis DNA gyrase
Result type: IC50

* CC1COc2c(N3CCC4(CC3)OCCO4)c(F)cc3c(=O)c(C(=O)O)cn1c23 (stereo not drawn) | 124 µM
* CC1CN(c2c(F)c([N+](=O)[O-])c3c(=O)c(C(=O)O)cn4c3c2OCC4C)CC(C)O1 (stereo not drawn) | > 119 µM
* CC1COc2c(N3CCc4ccccc4C3C(=O)NC(C)(C)C)c(F)c([N+](=O)[O-])c3c(=O)c(C(=O)O)cn1c23 (stereo not drawn) | 92.8 µM
* CC1COc2c(N3CCSCC3)c(F)cc3c(=O)c(C(=O)O)cn1c23 (stereo not drawn) | 110 µM
* CC1CN(c2c(F)cc3c(=O)c(C(=O)O)cn4c3c2OCC4C)CC(C)O1 (stereo not drawn) | > 133 µM
* CC1COc2c(N3CCN(C(c4ccccc4)c4ccc(Cl)cc4)CC3)c(F)c([N+](=O)[O-])c3c(=O)c(C(=O)O)cn1c23 (stereo not drawn) | 16.9 µM
* CC1COc2c(N3CCN(C(=O)c4ccco4)CC3)c(F)cc3c(=O)c(C(=O)O)cn1c23 (stereo not drawn) | > 113 µM
* CC1COc2c(N3CCSCC3)c(F)c([N+](=O)[O-])c3c(=O)c(C(=O)O)cn1c23 (stereo not drawn) | 122 µM

---

Test system: Mus musculus
Procedure summary: Phototoxic effect in UV light irradiated mouse assessed as number of mouse bearing erythema at 140 mg/kg, after 24 hrs relative to control
Type: ADME, organism-based
Set-up: dose 140 mg/kg
Particulars: in vivo
Result type: Activity

- CC1COc2c(N3CCC4(CC3)OCCO4)c(F)cc3c(=O)c(C(=O)O)cn1c23 (stereo not given): Toxic
- CC1COc2c(N3CCN(C(=O)c4ccco4)CC3)c(F)cc3c(=O)c(C(=O)O)cn1c23 (stereo not given): Non-toxic
- CC1COc2c(N3CCSCC3)c(F)c([N+](=O)[O-])c3c(=O)c(C(=O)O)cn1c23 (stereo not given): Non-toxic
- CCn1cc(C(=O)O)c(=O)c2cc(F)c(N3CCNC(C)C3)c(F)c21 (stereo not given) [LOMEFLOXACIN]: Toxic
- CC1COc2c(N3CCN(C(c4ccccc4)c4ccc(Cl)cc4)CC3)c(F)c([N+](=O)[O-])c3c(=O)c(C(=O)O)cn1c23 (stereo not given): Non-toxic
